Target: CDK7/Cyclin H/MAT1 kinase (Homo sapiens (Human), UniProt P50613)
Sequence (P50613 whole entry): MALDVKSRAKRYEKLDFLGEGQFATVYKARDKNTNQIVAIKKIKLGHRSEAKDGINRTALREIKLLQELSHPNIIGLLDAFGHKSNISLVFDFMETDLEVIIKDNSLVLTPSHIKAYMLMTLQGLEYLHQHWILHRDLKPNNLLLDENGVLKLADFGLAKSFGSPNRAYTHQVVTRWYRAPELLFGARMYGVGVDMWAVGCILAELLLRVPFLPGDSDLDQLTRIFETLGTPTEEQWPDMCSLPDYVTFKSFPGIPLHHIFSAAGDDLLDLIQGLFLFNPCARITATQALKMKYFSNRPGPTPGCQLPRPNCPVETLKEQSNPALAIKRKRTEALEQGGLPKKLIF
Sequence (P51946 whole entry partner): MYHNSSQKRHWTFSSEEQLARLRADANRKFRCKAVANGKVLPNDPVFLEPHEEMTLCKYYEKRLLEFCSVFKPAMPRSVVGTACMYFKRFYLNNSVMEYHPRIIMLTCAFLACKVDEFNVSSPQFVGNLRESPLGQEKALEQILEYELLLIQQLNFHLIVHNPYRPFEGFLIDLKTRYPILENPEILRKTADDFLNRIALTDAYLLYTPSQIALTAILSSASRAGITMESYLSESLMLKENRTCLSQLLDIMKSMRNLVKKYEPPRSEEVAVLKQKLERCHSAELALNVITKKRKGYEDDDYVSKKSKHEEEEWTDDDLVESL
Sequence (P51948 whole entry partner): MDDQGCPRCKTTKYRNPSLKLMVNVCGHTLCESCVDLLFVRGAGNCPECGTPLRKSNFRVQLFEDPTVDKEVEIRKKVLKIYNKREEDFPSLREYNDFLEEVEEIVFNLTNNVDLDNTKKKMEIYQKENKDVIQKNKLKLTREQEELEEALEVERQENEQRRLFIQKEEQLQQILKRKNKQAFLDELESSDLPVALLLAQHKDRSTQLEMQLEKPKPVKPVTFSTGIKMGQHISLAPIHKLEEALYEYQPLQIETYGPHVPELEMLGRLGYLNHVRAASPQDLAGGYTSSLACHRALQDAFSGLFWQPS
Assay: Enzyme activity test, mobility shift assay (Table 1)
Format: biochemical
Settings: 2 mM ATP; pre-incubated 0 and 60 minutes
Listed next: entries and their corresponding IC50.

Look over these answered cases.
Ask: Suppose we examine the molecule COC(=O)N(C)c1ccc2c(-c3nc(N[C@H]4CCCNC4)ncc3C(F)(F)F)c[nH]c2c1Cl [Example T-162] ; what IC50 value has been reported?
Reply: < 50 nM

Ask: Suppose we examine the molecule COC(=O)Nc1ccc2c(-c3nc(NC4C5CCNC54)ncc3C(F)(F)F)c[nH]c2c1Br (stereo not drawn) [Example T-26] ; what IC50 value has been reported?
Reply: 50 to 500 nM

Ask: Suppose we examine the molecule CN(C)C(=O)n1cc(-c2nc(N[C@H]3CCC(C)(C)NC3)ncc2C(F)(F)F)c2ccc(O)cc21 [Example T-33] ; what IC50 value has been reported?
Reply: 50 to 500 nM

Continuing:
Ask: Suppose we examine the molecule CCOc1c(NC(=O)OC)ccc2c(-c3nc(N[C@H]4CCC(C)(C)NC4)ncc3C(F)(F)F)c[nH]c12 [Example T-95] ; what IC50 value has been reported?
Reply: < 50 nM

Ask: Suppose we examine the molecule CCCOC(=O)Nc1ccc2c(-c3nc(N[C@H]4CCCNC4)ncc3C(F)(F)F)c[nH]c2c1Br [Example T-45] ; what IC50 value has been reported?
Reply: 50 to 500 nM
